target: chimeric human RORγ-Gal4 receptor (Homo sapiens); test: transient transactivation assay (RORγ-Gal4 luciferase reporter); format: cell-based; conditions: Cos-7 cells transfected with RORγ-Gal4 and 5Gal4 pGL3 TK Luc reporter; overnight incubation; T0901317 at 10^-5 M as reference; read-out: IC50
The entries below come with measured IC50 values attached.

{"compound": "Cc1cc(C(F)(F)F)cc2c1cc(Cc1c(Cl)ncc(C(=O)N3CCC(O)(CCO)CC3)c1Cl)n2C", "IC50": "100 to 500 nM"}
{"compound": "Cc1cc(C(F)(F)F)cc2c1cc(C(=O)c1c(Cl)ccc(C(=O)N3CC[C@@H](C(=O)O)[C@@H](C)C3)c1Cl)n2C", "IC50": "< 100 nM"}
{"compound": "Cc1cn(C(=O)c2c(Cl)ccc(C(=O)N3CCC(CC(=O)O)CC3)c2Cl)c2c(C)cc(OC(F)(F)F)cc12", "IC50": "< 100 nM"}
{"compound": "Cc1cc(C(F)(F)F)cc2c1cc(Cc1c(Cl)ccc(C(=O)N3CCC(CC(=O)O)C(C)C3)c1Cl)n2C (centres unmarked)", "IC50": "< 100 nM"}
{"compound": "Cc1cc(C(F)(F)F)cc2c1cc(Cc1c(Cl)ccc(C(=O)N3CCN(C4CC(C(=O)O)C4)CC3)c1Cl)n2C (centres unmarked)", "IC50": "< 100 nM"}
{"compound": "Cc1cc(C(F)(F)F)cn2c(C)c(Cc3c(Cl)ccc(C(=O)N4CCC(C(C)O)CC4)c3Cl)nc12 (centres unmarked)", "IC50": "100 to 500 nM"}
{"compound": "Cc1cc(C#N)cc2c1cc(Cc1c(Cl)ccc(C(=O)N3CCCN(CCO)CC3)c1Cl)n2C", "IC50": "100 to 500 nM"}
{"compound": "Cc1cc(C(F)(F)F)cc2c1cc(C(=O)c1c(Cl)ccc(CO)c1Cl)n2C", "IC50": "1000 to 10000 nM"}

###

biological target: chimeric human RORγ-Gal4 receptor (Homo sapiens, UniProt P51449); assay: transient transactivation assay (RORγ-Gal4 luciferase reporter); assay type: cell-based; settings: Cos-7 cells transfected with RORγ-Gal4 and 5Gal4 pGL3 TK Luc reporter; overnight incubation; T0901317 at 10^-5 M as reference; read-out: IC50
Sequence (P51449 269-508 limits assumed, change not shown): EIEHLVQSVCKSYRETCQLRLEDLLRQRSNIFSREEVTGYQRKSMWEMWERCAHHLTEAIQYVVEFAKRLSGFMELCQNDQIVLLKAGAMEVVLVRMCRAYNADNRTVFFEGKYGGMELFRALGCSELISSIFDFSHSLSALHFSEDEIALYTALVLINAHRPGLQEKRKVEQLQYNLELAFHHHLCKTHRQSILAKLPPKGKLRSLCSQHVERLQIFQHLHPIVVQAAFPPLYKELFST
pIC50: −log10 of the molar value.
The entries below come with measured pIC50 values attached.

{"compound": "Cc1cc(C(F)(F)F)cc2c1nc(Cc1c(Cl)ccc(CN3CCCC(O)C3)c1Cl)n2C (centres unmarked)", "target_of_assay": "chimeric human RORγ-Gal4 receptor (Homo sapiens, UniProt P51449)", "pIC50": "6.30 to 7.00"}
{"compound": "Cn1c(Cc2c(Cl)ccc(C(=O)N3CCOCC3)c2Cl)nc2c(C(F)(F)F)cc(C#N)cc21", "target_of_assay": "chimeric human RORγ-Gal4 receptor (Homo sapiens, UniProt P51449)", "pIC50": "6.00 to 6.30"}
{"compound": "O=C(O)CC1CCN(C(=O)c2ccc(Cl)c(Cn3ccc4cc(C(F)(F)F)cc(F)c43)c2Cl)CC1", "target_of_assay": "chimeric human RORγ-Gal4 receptor (Homo sapiens, UniProt P51449)", "pIC50": "> 7.00"}
{"compound": "Cc1cc(C#N)cn2c(C)c(Cc3c(Cl)ccc(C(=O)N4CCC(C5COC5)CC4)c3Cl)nc12", "target_of_assay": "chimeric human RORγ-Gal4 receptor (Homo sapiens, UniProt P51449)", "pIC50": "6.30 to 7.00"}
{"compound": "Cn1c(Cc2c(C3CC3)ccc(C(=O)N3CCC(CC(=O)O)CC3)c2Cl)cc2ccc(OC(F)(F)F)cc21", "target_of_assay": "chimeric human RORγ-Gal4 receptor (Homo sapiens, UniProt P51449)", "pIC50": "> 7.00"}
{"compound": "Cc1cc(OC(F)(F)F)cc2ccn(C(=O)c3c(Cl)ccc(C(=O)N4CC5(CC(CC(=O)O)C5)C4)c3Cl)c12", "target_of_assay": "chimeric human RORγ-Gal4 receptor (Homo sapiens, UniProt P51449)", "pIC50": "> 7.00"}
{"compound": "Cc1cc(C(F)(F)F)cc2c1cc(Cc1c(Cl)ccc(C(=O)N[C@H]3CC[C@@H](C(=O)O)CC3)c1Cl)n2C", "target_of_assay": "chimeric human RORγ-Gal4 receptor (Homo sapiens, UniProt P51449)", "pIC50": "> 7.00"}
{"compound": "Cc1cn(C(=O)c2c(Cl)ccc(C(=O)N3CCC(CC(=O)O)CC3)c2Cl)c2c(C)cc(C(F)(F)F)cc12", "target_of_assay": "chimeric human RORγ-Gal4 receptor (Homo sapiens, UniProt P51449)", "pIC50": "> 7.00"}
